tested on: U2OS; test: Multiplex assay against U2OS; format: toxicity, cell-based; conditions: human, 12 h, 10 µM, compound concentration 10 uM, replicate 1
metric: Population Mitotic Cells (%)
Write it as a number; the unit % goes unstated.

mol.smiles	unit.annotation	Population Mitotic Cells (%)
CC(C)[C@H](CO)Nc1nc(Nc2cccc(Cl)c2)c2ncn(C(C)C)c2n1	%	32
CCCc1cc(C)[nH]c(=O)c1CNC(=O)c1cc(-c2ccc(N3CCN(C(C)C)CC3)nc2)cc2c1cnn2C(C)C	%	29
C=CC(=O)Nc1cc(-n2c(=O)ccc3cnc4ccc(-c5ccc(NS(C)(=O)=O)cc5)cc4c32)ccc1C	%	69

Proceeding to the next compound to report its Population Mitotic Cells (%).
Input line: # query: Population Mitotic Cells (%) of entry CC[C@@H]1C(=O)N(C)c2cnc(Nc3ccc(C(=O)NC4CCN(C)CC4)cc3OC)nc2N1C1CCCC1
Output line: 23

====

tested on: U2OS; assay: Incucyte cell viability with U2OS; type: toxicity, cell-based; details: human, 24 h, 10 µM, compound concentration 10 uM, replicate number 2, timepoint 24 hours; further: filed as whole numbers so only -1 and 0 and 1 occur
metric: Growth Rate
Reply briefly: the number, and no unit.

// known answers, use as guide
compound	Growth Rate
Cc1c(F)cccc1NC(=O)Nc1ccc(Cl)c(S(=O)(=O)[C@H]2CCCNC2)c1O [DANIRIXIN]	1
CCOC(=O)c1ccc(C#Cc2ccc3c(c2)C(C)(C)CCS3)nc1 [TAZAROTENE]	1
Cc1c(Nc2ccc(S(=O)(=O)N3CCN(C)CC3)cc2F)nc2ccc(-c3cnn(C4CC4)c3)cn2c1=O	1
COc1cc(N2CCC(O)CC2)ccc1Nc1cc(Nc2ccccc2S(=O)(=O)C(C)C)c2cc[nH]c2n1	0

Proceeding to the next compound to report its Growth Rate.
Input line: U2OS / Growth Rate / COc1cc(C#N)ccc1S(=O)(=O)Nc1ccc2c(c1)cc(C)c(=O)n2C : value?
Output line: 1

====

Parameter Population Mitochondria Different-Phenotype (%): see the listing below.
test system: Fibroblast; assay: Multiplex assay against human fibroblast; type: toxicity, cell-based; conditions: 12 h, 1 µM, compound concentration 1 uM, replicate 1
Write it as a number; the unit % goes unstated.

// known answers, use as guide
compound	system.name	unit.annotation	measurement
Cl.NC[C@@H]1O[C@H](C23CC4CC(CC(C4)C2)C3)Cc2c1ccc(O)c2O	Fibroblast	%	1
CC(Cc1ccc(O)c(O)c1)C(C)Cc1ccc(O)c(O)c1 (stereo not drawn) [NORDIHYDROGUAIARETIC ACID]	Fibroblast	%	4
NC(=O)c1ccc2nc(-c3ccc(C4(N)CCC4)cc3)c(-c3ccccc3)n2n1	Fibroblast	%	0
CCCCN(CC)c1nc(C)nc2c1c(C)cn2-c1c(C)cc(C)cc1C.Cl	Fibroblast	%	9
C=CC(=O)Nc1cc(-n2c(=O)ccc3cnc4ccc(-c5ccc(NS(C)(=O)=O)cc5)cc4c32)ccc1C	Fibroblast	%	3

Input line: Fibroblast / Population Mitochondria Different-Phenotype (%) / Cc1c(Nc2ccc(S(=O)(=O)N3CCN(C)CC3)cc2F)nc2ccc(-c3cnn(C4CC4)c3)cn2c1=O : value?
Output line: 4

Input line: Continue with CC(C)[C@H](CO)Nc1nc(Nc2cccc(Cl)c2)c2ncn(C(C)C)c2n1
Output line: 7

====

Parameter Population Fragmented Nuclei (%): see the listing below.
test system: U2OS; experiment: Multiplex assay against U2OS; assay type: toxicity, cell-based; conditions: human, 48 h, 1 µM, compound concentration 1 uM, replicate 1
Write it as a number; the unit % goes unstated.

// known answers, use as guide
compound	unit.annotation	Population Fragmented Nuclei (%)
Cc1c(P(=S)(c2ccccc2)c2ccccc2)n2ccccc2[n+]1C/C=C/c1ccccc1.[Br-]	%	7
C=CC(=O)Nc1cc(-n2c(=O)ccc3cnc4ccc(-c5ccc(NS(C)(=O)=O)cc5)cc4c32)ccc1C	%	5

Input line: # query: Population Fragmented Nuclei (%) of entry N#CCNC(=O)c1ccc(-c2ccnc(Nc3ccc(N4CCOCC4)cc3)n2)cc1
Output line: 9

Input line: Continue with C[C@@H](Oc1cc(-n2cnc3ccc(CN4CCN(C)CC4)cc32)sc1C(N)=O)c1ccccc1C(F)(F)F
Output line: 22

====

system: HEK-293T; assay: Multiplex assay against HEK293T; type: toxicity, cell-based; details: human, 12 h, 10 µM, compound concentration 10 uM, replicate 2;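 further: share of the cells with healthy nuclei that show this phenotype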
Parameter Population Tubulin-Different-Phenotype (%): see the listing below.
Write it as a number; the unit % goes unstated.

Input line: HEK-293T / Population Tubulin-Different-Phenotype (%) / CN1C(=O)[C@@H](NC(=O)c2cc3ccccc3[nH]2)N=C(c2ccccc2)c2ccccc21 [DEVAZEPIDE] : value?
Output line: 66

Input line: Continue with N#CCNC(=O)c1ccc(-c2ccnc(Nc3ccc(N4CCOCC4)cc3)n2)cc1
Output line: 42

Input line: Continue with CCOC(=O)CCNc1cc(N2CCc3ccccc3CC2)nc(-c2ccccn2)n1
Output line: 56

Input line: Continue with C[C@@H](Oc1cc(-n2cnc3ccc(CN4CCN(C)CC4)cc32)sc1C(N)=O)c1ccccc1C(F)(F)F
Output line: 62

====

Parameter Population Apoptotic (%): see the listing below.
system: U2OS; assay: Multiplex assay against U2OS; type: toxicity, cell-based; details: human, 12 h, 10 µM, compound concentration 10 uM, replicate 1
Write it as a number; the unit % goes unstated.

molecule	unit.annotation	measurement
Cc1ccc(S(=O)(=O)NC2c3ccccc3Oc3ccccc32)cc1	%	71
Oc1cccc(-c2nc(N3CCOCC3)c3oc4ncccc4c3n2)c1	%	42
CC[C@@]1(O)C(=O)OCc2c1cc1n(c2=O)Cc2cc3ccccc3nc2-1	%	47
CC(C)[C@H](CO)Nc1nc(Nc2cccc(Cl)c2)c2ncn(C(C)C)c2n1	%	68
CC(C)c1cc(Nc2nc(N3CCC[C@H](N)C3)ncc2C(N)=O)cc(C(C)C)n1	%	64
CCCc1cc(C)[nH]c(=O)c1CNC(=O)c1cc(-c2ccc(N3CCN(C(C)C)CC3)nc2)cc2c1cnn2C(C)C	%	70

Input line: # query: Population Apoptotic (%) of entry Cl.Cn1c2c(c3ccc(Cl)c(Cl)c31)C(C#N)C1(CCNCC1)NC2=O (centres undefined)
Output line: 56

Input line: Continue with CC(/C=C1\SC(=S)N(CCCC(=O)Nc2ccc(C(=O)O)c(O)c2)C1=O)=C\c1ccccc1
Output line: 42

Input line: Continue with CC[C@H](Nc1ncnc2[nH]cnc12)c1nc2cccc(F)c2c(=O)n1-c1ccccc1
Output line: 0

====

system: Fibroblast; experiment: Multiplex assay against human fibroblast; type: toxicity, cell-based; details: 48 h, 1 µM, compound concentration 1 uM, replicate 2
Parameter Population Fragmented Nuclei (%): see the listing below.
Write it as a number; the unit % goes unstated.

// known answers, use as guide
compound	Population Fragmented Nuclei (%)
CC(C)c1cc(Nc2nc(N3CCC[C@H](N)C3)ncc2C(N)=O)cc(C(C)C)n1	33
CN(c1cc(C(F)(F)F)nc(OCCC(=O)O)n1)c1cccc2c1CCC2	19
C[C@@H](Oc1cc(-n2cnc3ccc(CN4CCN(C)CC4)cc32)sc1C(N)=O)c1ccccc1C(F)(F)F	31
Oc1cccc(-c2nc(N3CCOCC3)c3oc4ncccc4c3n2)c1	32
CC(Cc1ccc(O)c(O)c1)C(C)Cc1ccc(O)c(O)c1 (stereo not drawn) [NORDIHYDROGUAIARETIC ACID]	25
N#Cc1cccc(C(=O)Nc2cc(-c3ccccc3)nn2-c2ccccc2)c1	28
Cc1c(P(=S)(c2ccccc2)c2ccccc2)n2ccccc2[n+]1C/C=C/c1ccccc1.[Br-]	29

Input line: # query: Population Fragmented Nuclei (%) of entry CCCc1cc(C)[nH]c(=O)c1CNC(=O)c1cc(-c2ccc(N3CCN(C(C)C)CC3)nc2)cc2c1cnn2C(C)C
Output line: 34

====

system: Fibroblast; assay: Multiplex assay against human fibroblast; assay type: toxicity, cell-based; details: 12 h, 10 µM, compound concentration 10 uM, replicate 2
Parameter Population Tubulin-Different-Phenotype (%): see the listing below.
Write it as a number; the unit % goes unstated.

// known answers, use as guide
molecule	system.name	measurement
CC[C@H](Nc1ncnc2[nH]cnc12)c1nc2cccc(F)c2c(=O)n1-c1ccccc1 [IDELALISIB]	Fibroblast	25
c1ccc(-c2oc3ncnc(NC[C@@H]4CCCO4)c3c2-c2ccccc2)cc1	Fibroblast	95
C[C@@H](Oc1cc(-n2cnc3ccc(CN4CCN(C)CC4)cc32)sc1C(N)=O)c1ccccc1C(F)(F)F [GSK-461364]	Fibroblast	100
Cl.Cn1c2c(c3ccc(Cl)c(Cl)c31)C(C#N)C1(CCNCC1)NC2=O (centres undefined)	Fibroblast	73
Cl.NC[C@@H]1O[C@H](C23CC4CC(CC(C4)C2)C3)Cc2c1ccc(O)c2O	Fibroblast	27
N#Cc1cccc(C(=O)Nc2cc(-c3ccccc3)nn2-c2ccccc2)c1	Fibroblast	97
CCOC(=O)CCNc1cc(N2CCc3ccccc3CC2)nc(-c2ccccn2)n1	Fibroblast	73
C=CC(=O)Nc1cc(-n2c(=O)ccc3cnc4ccc(-c5ccc(NS(C)(=O)=O)cc5)cc4c32)ccc1C	Fibroblast	52

Proceeding to the next molecule to report its Population Tubulin-Different-Phenotype (%).
Input line: # query: Population Tubulin-Different-Phenotype (%) of entry CC[C@@H]1C(=O)N(C)c2cnc(Nc3ccc(C(=O)NC4CCN(C)CC4)cc3OC)nc2N1C1CCCC1 [BI-2536]
Output line: 62
